Biological target: human MDM4 protein (amino acids 2-185) (Homo sapiens (Human), UniProt O15151)
Sequence (O15151 2-185): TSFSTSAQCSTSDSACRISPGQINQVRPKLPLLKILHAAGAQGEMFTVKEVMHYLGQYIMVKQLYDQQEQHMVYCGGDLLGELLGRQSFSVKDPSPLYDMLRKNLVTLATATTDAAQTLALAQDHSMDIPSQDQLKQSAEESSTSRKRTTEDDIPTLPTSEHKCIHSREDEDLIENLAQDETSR
Experiment: TR-FRET assay, p53-MDM4 Assay 1
Format: binding
Conditions: 2.5 nM MDM4-biotinylated, 10 nM Cy5-p53 peptide
Method: The inhibition of p53-MDM2 and p53-MDM4 interactions is measured by time resolved fluorescence energy transfer (TR-FRET). Fluorescence energy transfer (or Foerster resonance energy transfer) describes an energy transfer between donor and acceptor fluorescent molecules. […] The ratiometric FRET assay readout is calculated from the raw data of the two distinct fluorescence signals measured in time resolved mode (fluorescence 665 nm/fluorescence 620 nm×1000). […]
Recorded IC50 by entry
parameter.measured: IC50

[[record]]
compound = "COc1nc(N(C)C)ncc1-c1cc2c(n1C(C)C)[C@H](c1ccc(C#N)cc1)N(c1cc(Cl)c[nH]c1=O)C2=O"
parameter_measured = "IC50"
endpoint_result = "0.717 µM"

[[record]]
compound = "Cc1cc(N2C(=O)c3cc(-c4ccn(C)c(=O)c4)n(C4CC4)c3C2c2ccc(Cl)cc2)cn(C)c1=O (stereo not shown)"
parameter_measured = "IC50"
endpoint_result = "> 100 µM"

[[record]]
compound = "COc1ccccc1-c1cc2c(n1C(C)C)C(c1ccc(Cl)cc1)N(c1cc(Cl)ccc1C)C2=O (stereo not shown)"
parameter_measured = "IC50"
endpoint_result = "4.03 µM"

[[record]]
compound = "COc1ccccc1-c1cc2c(n1C(C)C)C(c1ccc(Cl)cc1C)N(c1cccc(Cl)c1F)C2=O (stereo not shown)"
parameter_measured = "IC50"
endpoint_result = "27.8 µM"

[[record]]
compound = "CNC(=O)c1ccc(OC)c(-c2cc3c(n2C(C)C)C(c2ccc(Cl)cc2)N(c2cc(Cl)ccc2C)C3=O)c1 (stereo not shown)"
parameter_measured = "IC50"
endpoint_result = "0.478 µM"

[[record]]
compound = "COc1ncc(-c2cc3c(n2C2CC2)C(c2ccc(Cl)cc2)N(c2cc(C)c(=O)n(C)c2)C3=O)cn1 (stereo not shown)"
parameter_measured = "IC50"
endpoint_result = "> 100 µM"

[[record]]
compound = "COc1ccc(F)cc1-c1cc2c(n1C(C)C)C(c1ccc(Cl)cc1C)N(c1cccc(Cl)c1F)C2=O (stereo not shown)"
parameter_measured = "IC50"
endpoint_result = "54.2 µM"

